- test-system: free PSA (Homo sapiens)
- Construct: required for 50% cleavage of the noted oligopeptides with enzymatically active free PSA
- Sequence (P07288 25-261): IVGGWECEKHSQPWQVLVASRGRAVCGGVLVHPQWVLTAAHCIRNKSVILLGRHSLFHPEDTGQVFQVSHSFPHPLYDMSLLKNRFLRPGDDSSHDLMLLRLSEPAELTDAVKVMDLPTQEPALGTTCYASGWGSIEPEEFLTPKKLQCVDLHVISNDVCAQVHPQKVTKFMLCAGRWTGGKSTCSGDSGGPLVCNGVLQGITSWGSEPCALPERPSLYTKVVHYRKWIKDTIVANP
- Type: biochemical
- measurement-setup: 3 HOURS; oligopeptide to PSA molar ratio 100 to 1
Square brackets hold non-standard residues; d marks the D form. Peptide text beside a SMILES is read from it. * marks the point of attachment. Decanoyl(3,6,9-trioxa) = COCCOCCOCC(=O)*; Hyp = O=C(O)[C@@H]1C[C@@H](O)CN1; Chg = N[C@H](C(=O)O)C1CCCCC1; ΔPro = O=C(O)[C@@H]1C=CCN1
Substrate cleavage by PSA at 3 hours reference
Respond with the bare value in %.

Known results for compounds:
1) COCCOCCOCC(=O)N1C[C@H](O)C[C@H]1C(=O)N[C@@H](C)C(=O)N[C@@H](CO)C(=O)N[C@H](C(=O)N[C@@H](CCC(N)=O)C(=O)N[C@@H](CO)C(=O)N[C@@H](CC(C)C)C(=O)O)C1CCCCC1 [PEG(2)-(4-trans-L-Hyp)-ASChgQ-SL-acid] ({Decanoyl(3,6,9-trioxa)}-[Hyp]AS[Chg]QSL-OH)    44
2) CC(=O)N1CC=C[C@H]1C(=O)N[C@@H](C)C(=O)N[C@@H](CO)C(=O)N[C@H](C(=O)N[C@@H](CCC(N)=O)C(=O)N[C@@H](CO)C(=O)N[C@@H](CC(C)C)C(=O)O)C1CCCCC1 [Ac-(Dehydro-Pro)-ASChgQ-SL-acid] (Ac-[ΔPro]AS[Chg]QSL-OH)    28
3) CC(=O)N1C[C@H](O)C[C@H]1C(=O)N[C@H](C(=O)N[C@@H](CCC(N)=O)C(=O)N[C@@H](CO)C(=O)N[C@@H](CO)C(=O)N[C@@H](CO)C(=O)N[C@@H](CC(C)C)C(=O)O)C1CCCCC1 [Ac-(4-trans-L-Hyp)ChgQ-SSSL-acid] (Ac-[Hyp][Chg]QSSSL-OH)    0

Query :: GET /values?readout=Substrate cleavage by PSA at 3 hours&system=free PSA (Homo sapiens)&item= CC(=O)N1C[C@H](O)C[C@H]1C(=O)N[C@@H](C)C(=O)N[C@@H](CO)C(=O)N[C@H](C(=O)N[C@@H](CCC(N)=O)C(=O)N[C@@H](CO)C(=O)N1Cc2ccccc2C[C@H]1C(=O)O)C1CCCCC1 [Ac-(4-trans-L-Hyp)ASChgQ-S(TIC)-acid]
Result :: 16
